I'd appreciate it if you could supply binding signal values for the items below.
measured.target: T1, UNK ZnF1-3 (human, UniProt Q9C0B0 31-174)
T1 sequence: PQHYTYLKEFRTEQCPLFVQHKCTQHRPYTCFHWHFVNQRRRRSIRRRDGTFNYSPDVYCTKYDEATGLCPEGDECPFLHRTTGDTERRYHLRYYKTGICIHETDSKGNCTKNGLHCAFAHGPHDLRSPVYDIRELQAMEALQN
method.notes: nsRBNS (natural sequence RNA bind-n-seq); RBNS binding buffer (assumed for nsRBNS): 25 mM Tris pH 7.5, 150 mM KCl, 3 mM MgCl2, 0.01% Triton X-100, 500 ug/ml BSA, 20 U/ml SUPERase-In, 4 C; UNK is unkempt and MSI1 is Musashi-1; names of the RNAs are library labels; protein concentration not given here; high values mean tight binding
Whole data set: some 24,000 sequences, median “enrichment r” near 0.99, cut for the highest 2% near 3.7. The entries come from a sample that favours the highest values as a whole.
Numbers only, in enrichment R.

Each binder below has a recorded value; state its binding signal.
1. chr2:27806210:27806211:+_ENSMUSG00000026837_ENSMUST00000028280|mus_hu|FALSE|FALSE (ssRNA) RNA: GGGAGUUCUACAGUCCGACGAUCUGUGGUUUCUUUGGCAGCUUCCACGGGCUUCUUGCUGGGGGUGGGCUCCUUCCCUAGGUCUUCGGGGUCUUCGUAGUAGGGGUAUUCGUAGUAAUAGGUCUCACCCUCGCCGUCUCCUUCCAACAGAGGAUUGAGCAUCA
2. 61064472_61067304_1030_3pUTR_ENSG00000119541_ENST00000238497|human|control|control (ssRNA) RNA: GGGAGUUCUACAGUCCGACGAUCUUCGUUUCUCAAAUCUUCGCCUAAUGGCAGAAUCCAGAACCCAGGGUAUAUUUGUAGCUCCCAGAACCAAAAUUCCAUCAUUGUCUACACCAACCCCUUGCAUUUGCACUAGGAACUCCGCAACAGAGGAUUGAGCAUCA
3. chr2:42509997:42509998:+_ENSG00000143924_ENST00000318522|hu_hu|FALSE|FALSE (ssRNA) RNA: GGGAGUUCUACAGUCCGACGAUCUCGCUGAGUUCUCUCCUCAUAAUUAAAUAGUACUACUACUGAUGCAAUGAAAUAAACUAUUUUCCCGGUCGGAAGAAGGUAAACAUUAGCUCUACAGUCCUUUCCUCGAUAACCAUAUGCCAACAGAGGAUUGAGCAUCA
4. 8158834_8158954_592_CDS_ENSG00000178921_ENST00000314666|human|control|control (ssRNA) RNA: GGGAGUUCUACAGUCCGACGAUCAGGGCCAUUGAGGGGUUCCGGCAUGCUCUCAGGGGAGAAACUCUGGAUGGGAUGGGGGAAGUGCUGCUCUGUCAUCCGGUCGUGCAGGGUAGCCAGAGCAAUGGCUUCCACCUCAGCUGACAACAGAGGAUUGAGCAUCA
5. chr18:52893488:52893489:-_ENSG00000196628_ENST00000354452|hu_hu|hu_hu_hu_mus_True|48_48 (ssRNA) RNA: GGGAGUUCUACAGUCCGACGAUCUAUUUAGACCAUUUCCGCGGAGUUAUGGCAUUUACUCAGUGCUGAUAGGUGGAAAAACUACUUGAACAGGGAUUUUUUUUUUCCUUAAUACAUGCCAAGAUUGUGUGGCUGUCAAAACAGCAACAGAGGAUUGAGCAUCA
6. chr1:53517203:53517204:+_ENSG00000116171_ENST00000408941|hu_mus|FALSE|FALSE (ssRNA) RNA: GGGAGUUCUACAGUCCGACGAUCUCAGGAAGAGCUGUUUUAAUUUUCUUUUUAAAUCUUCCAAAAGCAUAUUUUUAUCCCAAACCUAAAUUAUAACAAAUAGCAUUAGAAUUAGAAAAACUUGGAAGAAAGAUAAAUGCAGACCAACAGAGGAUUGAGCAUCA

Key:
[0.604, 1.29, 0.867, 0.632, 0.93, 1.47]

Each binder below has a recorded value; state its binding signal.
1. chr2:48026839:48026840:+_ENSG00000116062_ENST00000540021|hu_hu|hu_hu_hu_mus_False|1_48 (ssRNA) RNA: GGGAGUUCUACAGUCCGACGAUCAUAGUGAGCCACUAGCGUCCUAAAUCUGGAACAGUGGCGGUCAUCCGAAAACUGGCCGAUGAAAAACUUUCCCAGUGAAGUGUCCACAAAGCAAACACCAUACACACGAGUGUGGCCAGACAACAGAGGAUUGAGCAUCA
2. chr6:41757443:41757444:+_ENSG00000214736_ENST00000398881|hu_mus|hu_hu_hu_mus_False|18_108 (ssRNA) RNA: GGGAGUUCUACAGUCCGACGAUCGAACUGUCUGCUGGCAACAUCUCAGCCGACACUGGGGGAUGGGGGGGCAGUGGGGGGGGGUUCAGGCAAGGAGAGGGAGUCAACUUCAGCUGCUCAAACUUCAGGAUCUUGUGGUCACAGCAACAGAGGAUUGAGCAUCA
3. 133220860_133220980_1226_CDS_ENSMUSG00000043257_ENSMUST00000062118|mouse|control|control (ssRNA) RNA: GGGAGUUCUACAGUCCGACGAUCGUAUAUUAGAGGAAGGUCCCAGGAGCACCAUGGGGGUGCAUUUUCUCCUGCAAGCCGGUAGCCUUUGUCGGCAGCUAGCUGCAGCAAGGGCUCAGGGAUGGAGGGGGCUGAGCCUGGUGACAACAGAGGAUUGAGCAUCA
4. chr2:55200753:55200754:-_ENSG00000115310_ENST00000317610|hu_hu|motif|central (ssRNA) RNA: GGGAGUUCUACAGUCCGACGAUCUUGGAUUUUAGCCAUAGCAUCUUUAACAUUCUUAUUUGCAAGUCCUAGAUAAUGAUCGGUCUGUGCCUGAUGCCGUUCAUAAAUAACAGGAACACUGAAGAGUGAAAUGAGAGCCAAAAUCAACAGAGGAUUGAGCAUCA
5. 135097835_135097955_579_3pUTR_ENSMUSG00000040731_ENSMUST00000036125|mouse|control|control (ssRNA) RNA: GGGAGUUCUACAGUCCGACGAUCAAGUCCAUGUUGGAGCCACGCAGAGGAGGGCCAUCUCGAAAGCGACUCCCCAUUGGAGGGCCUGCUCGCCGGUCCCCAGGGCGACUGCCCCCCCUACCCCCUAAGAAGUCAUCCCUGUAGCAACAGAGGAUUGAGCAUCA
6. chr20:33097842:33097843:+_ENSG00000078747_ENST00000374864|hu_hu|motif|central (ssRNA) RNA: GGGAGUUCUACAGUCCGACGAUCAAAAAUAUUAAAUAGCCAAGCCCUAUAGAACUAGGGCCAGGGCUACUUCAAAUAUAACGGUUCUGUAUUUUAAAAAUAUAGGGCAGAAAGCCUUUUGGGUGAUAUUUAUAUAUUUUCACACAACAGAGGAUUGAGCAUCA

Key:
1: 1.03; 2: 4.19; 3: 1.08; 4: 1.53; 5: 0.982; 6: 0.982

Exercise: // query binding signal value for entry chr10:114190419:114190420:-_ENSG00000023041_ENST00000369405|hu_hu|FALSE|FALSE (ssRNA) RNA: GGGAGUUCUACAGUCCGACGAUCGGGCAGGAAUUCAAAGGCAUAUGCAGAAUGGCUUCUCCAUUUCAAAAUGGUAAUAAAAAUAUUUAAAUCAUGGCACUAGGGCACCUUUGAGGAAAAGAACAUCUUAACCAGAGUAGGCUCCAACAGAGGAUUGAGCAUCA
Key: 4.18
